target: acetylcholine receptor; experiment: SPR, AchR immobilized on chip
MEASURED ENDPOINT: Binding affinity (relative to RRGVRR) (value relative to the RRGVRR sequence)

* RRGVRRV | 149
* RRGVRRL | 146
* DRRGVRR | 159
* NRRGVRR | 109
* RRGVRRF | 137
* LRRGVRR | 149
* RRGVRRY | 101
* ARRGVRR | 134
